Reference source: the supplement of paper PMC10126150

- Tested on: ATP;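 note: ATP exposure 15 min at 22 °C before imaging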
- assay_summary: switch fluorescence ratio, 500 uM ATP over buffer (Cy3 cluster intensity, sum of 5 cycles each) (fold (ratio)); higher = stronger signal-on switching upon ATP binding; sequences stand for … in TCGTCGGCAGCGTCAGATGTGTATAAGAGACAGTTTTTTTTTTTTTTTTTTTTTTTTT…TC
- experimental_conditions: aptamer strand: ATP DNA aptamer (quencher-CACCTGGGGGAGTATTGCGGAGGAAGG + anchor), 100 nM annealed; ATP concentration: 500 uM
experimental_endpoint: switch fluorescence ratio

# count of solved cases: 10
{"query_sequence": "GGGTCGCGTG", "target_system": "ATP", "switch fluorescence ratio": 1.02}
{"query_sequence": "TTTCTAGTGG", "target_system": "ATP", "switch fluorescence ratio": 0.999}
{"query_sequence": "TTCTGGGTTT", "target_system": "ATP", "switch fluorescence ratio": 1.01}
{"query_sequence": "TCGGGGGCGA", "target_system": "ATP", "switch fluorescence ratio": 1.13}
{"query_sequence": "GGTACATGGG", "target_system": "ATP", "switch fluorescence ratio": 0.975}
{"query_sequence": "ATATATTTTG", "target_system": "ATP", "switch fluorescence ratio": 0.972}
{"query_sequence": "ATCTTAGTAA", "target_system": "ATP", "switch fluorescence ratio": 1}
{"query_sequence": "GCGGGGGGGG", "target_system": "ATP", "switch fluorescence ratio": 1.02}
{"query_sequence": "TTTGACATGG", "target_system": "ATP", "switch fluorescence ratio": 0.955}
{"query_sequence": "AGATTGGGGA", "target_system": "ATP", "switch fluorescence ratio": 1.01}

Reported switch fluorescence ratio ( "AAAGCCGATG" ) = 1

Reported switch fluorescence ratio ( "ATGGTCGGCA" ) = 0.985

Reported switch fluorescence ratio ( "AGATTAAGTA" ) = 0.989

Reported switch fluorescence ratio ( "GGGGGTCTTA" ) = 0.997

Reported switch fluorescence ratio ( "GGGGTTTACA" ) = 0.989

Reported switch fluorescence ratio ( "GTGGTAAGAT" ) = 0.991

Reported switch fluorescence ratio ( "GTAATAAGAG" ) = 1

Reported switch fluorescence ratio ( "TCGTTATGT" ) = 0.977

Reported switch fluorescence ratio ( "GGTGTGGGGC" ) = 1.01

Reported switch fluorescence ratio ( "GTGTAATAGG" ) = 0.971
